Hello, the source for this data is paper PMC11490872, in case you need it.

- Assayed target: menin^T349M bound to FLSN-MLL1^4-43 (Homo sapiens, UniProt O00255, T344M)
- Construct: The gene encoding full-length human menin was cloned into a pET32a expression vector; thioredoxin-His6 (cleaved yes); made in house; host or cells: E. coli BL21(DE3); probe peptide from GenScript
- Sequence (O00255 whole entry T344M): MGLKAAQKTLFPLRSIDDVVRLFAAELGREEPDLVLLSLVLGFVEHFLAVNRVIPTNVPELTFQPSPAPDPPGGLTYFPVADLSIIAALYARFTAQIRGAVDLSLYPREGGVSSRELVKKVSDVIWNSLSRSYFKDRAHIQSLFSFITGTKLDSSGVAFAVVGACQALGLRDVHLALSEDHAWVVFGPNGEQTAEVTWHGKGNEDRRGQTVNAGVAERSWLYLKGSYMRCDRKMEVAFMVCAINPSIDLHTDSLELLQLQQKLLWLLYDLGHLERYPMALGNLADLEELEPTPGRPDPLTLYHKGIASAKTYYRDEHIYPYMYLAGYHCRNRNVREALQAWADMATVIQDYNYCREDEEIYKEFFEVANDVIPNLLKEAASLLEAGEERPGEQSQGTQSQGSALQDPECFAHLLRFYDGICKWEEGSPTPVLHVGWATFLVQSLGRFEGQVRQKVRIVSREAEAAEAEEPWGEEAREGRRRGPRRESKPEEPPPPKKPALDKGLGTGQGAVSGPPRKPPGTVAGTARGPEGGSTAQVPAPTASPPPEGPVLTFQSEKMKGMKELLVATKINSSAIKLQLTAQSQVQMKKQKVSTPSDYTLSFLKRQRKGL
- Method summary: FP competition, displacement of FLSN-MLL1^4-43 from menin^T349M
- Type: binding
- Condition parameters: FP competition, 5% DMSO, 3 h, N = 3, Fig. 4A; read-out: IC50 (nM), menin variant T349M
Assay readout: IC50 (nM)
Could you give me the number in nM? Just the number is fine.

// query Look at this compound and give its reported IC50. CCN(C(=O)c1cc(F)ccc1Oc1cncnc1N1CC2(CCN(C[C@H]3CC[C@H](NS(=O)(=O)CC)CC3)CC2)C1)C(C)C [Revumenib, reference compound]
// result 125

---

- Assayed target: menin^WT bound to FLSN-MLL1^4-43 (Homo sapiens)
- Construct: Full-length human menin was expressed in BL21(DE3) cells; thioredoxin-His6 (cleaved yes); made in house; host or cells: E. coli BL21(DE3); probe peptide from GenScript
- Sequence (O00255 whole entry): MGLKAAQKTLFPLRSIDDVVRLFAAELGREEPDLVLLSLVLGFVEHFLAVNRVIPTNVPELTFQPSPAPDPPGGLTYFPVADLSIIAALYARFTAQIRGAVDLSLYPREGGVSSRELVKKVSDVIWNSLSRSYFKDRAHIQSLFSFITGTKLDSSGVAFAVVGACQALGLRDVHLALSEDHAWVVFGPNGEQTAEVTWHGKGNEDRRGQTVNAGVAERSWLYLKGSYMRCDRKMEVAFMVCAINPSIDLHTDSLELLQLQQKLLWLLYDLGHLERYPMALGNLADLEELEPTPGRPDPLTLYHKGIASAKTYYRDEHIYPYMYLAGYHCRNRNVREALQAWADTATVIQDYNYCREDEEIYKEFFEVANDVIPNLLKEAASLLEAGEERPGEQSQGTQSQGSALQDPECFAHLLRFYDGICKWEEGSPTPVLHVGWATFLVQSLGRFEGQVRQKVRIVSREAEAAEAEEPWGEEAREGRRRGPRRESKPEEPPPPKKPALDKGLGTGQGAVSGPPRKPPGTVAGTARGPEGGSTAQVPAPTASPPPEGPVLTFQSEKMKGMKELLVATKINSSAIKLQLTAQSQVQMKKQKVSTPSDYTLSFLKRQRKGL
- Method summary: FP competition, displacement of FLSN-MLL1^4-43 from menin^WT
- Type: binding
- Condition parameters: FP competition, 5% DMSO, 3 h, N = 3, Fig. 4A; read-out: IC50 (nM), menin variant WT
Assay readout: IC50 (nM)
Could you give me the number in nM? Just the number is fine.

// query Entry CCN(C(=O)c1cc(F)ccc1Oc1cncnc1N1CC2(CCN(C[C@H]3CC[C@H](NS(=O)(=O)CC)CC3)CC2)C1)C(C)C [Revumenib, reference compound] , system menin^WT bound to FLSN-MLL1^4-43 (Homo sapiens): what IC50 was measured?
// result 5.7

---

- Assayed target: menin^G331R bound to FLSN-MLL1^4-43 (Homo sapiens, UniProt O00255, G326R)
- Construct: The gene encoding full-length human menin was cloned into a pET32a expression vector; thioredoxin-His6 (cleaved yes); made in house; host or cells: E. coli BL21(DE3); probe peptide from GenScript
- Sequence (O00255 whole entry G326R): as the sequence (O00255 whole entry) above, with G326R counted along it
- Method summary: FP competition, displacement of FLSN-MLL1^4-43 from menin^G331R
- Type: binding
- Condition parameters: FP competition, 5% DMSO, 3 h, N = 3, Fig. 4A; read-out: IC50 (nM), menin variant G331R
Assay readout: IC50 (nM)
Could you give me the number in nM? Just the number is fine.

// query Entry CCN(C(=O)c1cc(F)ccc1Oc1cncnc1N1CC2(CCN(C[C@H]3CC[C@H](NS(=O)(=O)CC)CC3)CC2)C1)C(C)C [Revumenib, reference compound] , system menin^G331R bound to FLSN-MLL1^4-43 (Homo sapiens, UniProt O00255, G326R): what IC50 was measured?
// result 30
